# target_entity: T1, Human BSSL (bile salt-stimulated lipase), native (human, UniProt P19835 21-753)
# T1 sequence: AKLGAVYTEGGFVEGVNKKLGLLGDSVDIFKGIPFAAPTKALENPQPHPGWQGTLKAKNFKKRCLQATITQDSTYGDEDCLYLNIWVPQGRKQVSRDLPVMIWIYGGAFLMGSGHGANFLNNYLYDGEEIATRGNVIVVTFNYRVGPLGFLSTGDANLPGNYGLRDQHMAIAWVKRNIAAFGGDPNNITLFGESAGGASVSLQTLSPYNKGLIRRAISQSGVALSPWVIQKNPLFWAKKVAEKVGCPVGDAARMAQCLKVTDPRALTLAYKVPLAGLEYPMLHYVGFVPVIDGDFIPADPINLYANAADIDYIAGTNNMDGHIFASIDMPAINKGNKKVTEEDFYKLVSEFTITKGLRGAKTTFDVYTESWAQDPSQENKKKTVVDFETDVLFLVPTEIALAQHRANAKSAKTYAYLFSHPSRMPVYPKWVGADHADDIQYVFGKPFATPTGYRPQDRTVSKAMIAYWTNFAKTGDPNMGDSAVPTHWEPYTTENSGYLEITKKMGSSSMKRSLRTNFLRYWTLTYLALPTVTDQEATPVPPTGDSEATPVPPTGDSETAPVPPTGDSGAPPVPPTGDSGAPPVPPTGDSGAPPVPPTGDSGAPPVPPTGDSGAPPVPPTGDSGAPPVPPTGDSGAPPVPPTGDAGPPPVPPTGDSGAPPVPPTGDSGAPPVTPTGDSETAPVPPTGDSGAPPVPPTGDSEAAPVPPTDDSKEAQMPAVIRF
# procedure_text: cell-based or functional assay
Readings of BSSL hydrolysis of triglycerides, relative value (no antibody = 100%); 1.5 ug antibody for the listed binders
endpoint_name: BSSL hydrolysis of triglycerides, relative value (no antibody = 100%); 1.5 ug antibody

• S-SL048-116 hIgG4 S228P (antibody, V domains shown, also called mAb116) VH: QVQLVQSGAEVKKPGASVKVSCKASGYTFTSYNMHWVRQAPGQGLEWMGVINPGDGATSYAQKFKGRVTMTRDTSTSTVYMELSSLRSEDTAVYYCARDYYGSSPLGYWGQGTLVTVSS VL: DIQMTQSPSSLSASVGDRVTITCRASPSISYMNWYQQKPGKAPKLLIYATSSLASGVPSRFSGSGSGTDFTLTISSLQPEDFATYYCHQRSSSPTFGQGTKLEIKR = 96.2
• S-SL048-11 hIgG4 S228P (antibody, V domains shown, also called clone 11; mAb11) VH: QVQLVQSGAEVKKPGASVKVSCKASGYTFTSYNMHWVRQAPGQGLEWMGVIYPGDGATSYAQKFKGRVTMTRDTSTSTVYMELSSLRSEDTAVYYCARDYYGSSPLGYWGQGTLVTVSS VL: DIQMTQSPSSLSASVGDRVTITCSASPSISYMNWYQQKPGKAPKLLIYATSSLASGVPSRFSGSGSGTDFTLTISSLQPEDFATYYCHQRSSYPTFGQGTKLEIKR = 112
• S-SL048-118 hIgG4 S228P (antibody, V domains shown, also called clone 118; mAb118) VH: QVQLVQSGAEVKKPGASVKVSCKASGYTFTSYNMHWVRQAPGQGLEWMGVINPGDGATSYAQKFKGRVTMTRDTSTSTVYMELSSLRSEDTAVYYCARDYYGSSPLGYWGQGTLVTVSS VL: DIQMTQSPSSLSASVGDRVTITCSASPSISYMNWYQQKPGKAPKLLIYATSSLPSGVPSRFSGSGSGTDFTLTISSLQPEDFATYYCHQRSSSPTFGQGTKLEIKR = 88
